molecular target: Cytochrome P450 2D6 (Homo sapiens); test: Cytochrome P450 Family 2 Subfamily D Member 6 (CYP2D6) small molecule antagonists: luciferase reporter qHTS assay (AID 1671196); conditions: P450-Glo CYP2D6 enzyme assay, luciferin luminescence, 1 h; series mostly up to 115 µM; note: nearly all actives have a fitted effect of over 50% in size
Inconclusive results are not listed. The source made the active and inactive calls. Calls come from the whole dose curve; as a rule, active = well fitted inhibition curve with a large enough effect in the repeat runs; inconclusive = weak or mixed curves; inactive = no such curve, though single readings can be large or run the other way.
Your reply should match one of these outcome classes. 1 (yes) for active, 0 (no) for inactive

INPUT: GET /call?item= CCC(=O)O[C@H]1[C@H](O[C@@H]2[C@@H](C)[C@H](O[C@H]3C[C@@](C)(OC)[C@@H](O)[C@H](C)O3)[C@@H](C)C(=O)O[C@H](CC)[C@@](C)(O)[C@H](O)[C@@H](C)C(=O)[C@H](C)C[C@@]2(C)O)O[C@H](C)C[C@@H]1N(C)C returns the recorded outcome of this test.
OUTPUT: 0 (no)

INPUT: GET /call?item= COC(=O)CC(=O)OC returns the recorded outcome of this test.
OUTPUT: 0 (no)

INPUT: GET /call?item= Clc1ccc(Sc2cc(Cl)c(Cl)cc2Cl)cc1 returns the recorded outcome of this test.
OUTPUT: 0 (no)

INPUT: GET /call?item= [Na+] returns the recorded outcome of this test.
OUTPUT: 0 (no)

INPUT: GET /call?item= C=CC(C)(O)CCC=C(C)C (stereo not drawn) returns the recorded outcome of this test.
OUTPUT: 0 (no)

INPUT: GET /call?item= CCC(Cc1c(I)cc(I)c(N)c1I)C(=O)O (stereo not drawn) returns the recorded outcome of this test.
OUTPUT: 0 (no)

INPUT: GET /call?item= O=S1(=O)CCCO1 returns the recorded outcome of this test.
OUTPUT: 0 (no)

INPUT: GET /call?item= CC(=O)O[C@]1(C(C)=O)CC[C@H]2[C@@H]3C=C(Cl)C4=CC(=O)CC[C@]4(C)[C@H]3CC[C@@]21C returns the recorded outcome of this test.
OUTPUT: 0 (no)

INPUT: GET /call?item= CCCCCCC(C)O (stereo not drawn) returns the recorded outcome of this test.
OUTPUT: 0 (no)

INPUT: GET /call?item= Cc1ccc(S(=O)(=O)NCl)cc1 returns the recorded outcome of this test.
OUTPUT: 0 (no)

INPUT: GET /call?item= C=CCNCC=C returns the recorded outcome of this test.
OUTPUT: 0 (no)

INPUT: GET /call?item= O=[Se](O)O returns the recorded outcome of this test.
OUTPUT: 0 (no)

INPUT: GET /call?item= Nc1cc(Cl)c(N)c(Cl)c1 returns the recorded outcome of this test.
OUTPUT: 1 (yes)

INPUT: GET /call?item= CN(C)/N=N/c1nc[nH]c1C(N)=O returns the recorded outcome of this test.
OUTPUT: 0 (no)

INPUT: GET /call?item= CC(C)=CCO returns the recorded outcome of this test.
OUTPUT: 0 (no)

INPUT: GET /call?item= CCCCCC1C(=O)CCC1CC(=O)OC (stereo not drawn) returns the recorded outcome of this test.
OUTPUT: 0 (no)

INPUT: GET /call?item= CC1(C)NC(=O)N(c2ccc([N+](=O)[O-])c(C(F)(F)F)c2)C1=O returns the recorded outcome of this test.
OUTPUT: 0 (no)

INPUT: GET /call?item= CN(Cc1cnc2nc(N)nc(N)c2n1)c1ccc(C(=O)N[C@@H](CCC(=O)O)C(=O)O)cc1 returns the recorded outcome of this test.
OUTPUT: 0 (no)

INPUT: GET /call?item= Cc1ccc(C(C)(C)C)cc1 returns the recorded outcome of this test.
OUTPUT: 0 (no)

INPUT: GET /call?item= NCCOCCO returns the recorded outcome of this test.
OUTPUT: 0 (no)

INPUT: GET /call?item= Oc1c(Cl)ccc(Cl)c1Cl returns the recorded outcome of this test.
OUTPUT: 1 (yes)

INPUT: GET /call?item= CCCN1C=CN(C)C1 returns the recorded outcome of this test.
OUTPUT: 0 (no)

INPUT: GET /call?item= Cc1ccc(C(C)(C)C)c(O)c1 returns the recorded outcome of this test.
OUTPUT: 0 (no)
